// provenance: PubChem BioAssay (NCI)

# Test system: RXF 393 renal
# MEASUREMENT NOTES: NCI tumour cell line growth inhibition, 48 h
VALUE TYPE: TGI

>  <COMPOUND>
O=C(O)C(=C\c1ccc2c(c1)OCO2)/C(=C/c1ccc2c(c1)OCO2)C(=O)O

>  <RESULT>
> 100 µM

$$$$
>  <COMPOUND>
COC(=O)[C@@H]1CSC(=S)N1C(=O)C[C@H]1CC=CC[C@H]1CC(=O)Sc1ccccc1

>  <RESULT>
30.4 µM

$$$$
>  <COMPOUND>
O=C(O)C1C(C(=O)O)C2C(=O)C=CC1N2Cc1ccccc1 (stereo unspecified)

>  <RESULT>
7.51 µM

$$$$
>  <COMPOUND>
Oc1ccccc1/C=N/Nc1nnc2c3ccccc3c3ccccc3c2n1

>  <RESULT>
> 100 µM

$$$$
>  <COMPOUND>
O=C(O)C1CC2C3CCC2C1C3=O (stereo unspecified)

>  <RESULT>
> 100 µM

$$$$
>  <COMPOUND>
COc1cc(Br)c(OC)c2c(OC)cc(C)cc12

>  <RESULT>
> 100 µM

$$$$
